Hey, just so you know, these numbers are from patent US7671061B2.

For each of the molecules below, state its pIC50.
study_system: hTRPA1 (Homo sapiens, UniProt O75762, K186N)
Construct: expressed in transfected cells; host or cells: HEK293/TREx (Invitrogen), induced with tetracycline
Sequence (O75762 whole entry K186N): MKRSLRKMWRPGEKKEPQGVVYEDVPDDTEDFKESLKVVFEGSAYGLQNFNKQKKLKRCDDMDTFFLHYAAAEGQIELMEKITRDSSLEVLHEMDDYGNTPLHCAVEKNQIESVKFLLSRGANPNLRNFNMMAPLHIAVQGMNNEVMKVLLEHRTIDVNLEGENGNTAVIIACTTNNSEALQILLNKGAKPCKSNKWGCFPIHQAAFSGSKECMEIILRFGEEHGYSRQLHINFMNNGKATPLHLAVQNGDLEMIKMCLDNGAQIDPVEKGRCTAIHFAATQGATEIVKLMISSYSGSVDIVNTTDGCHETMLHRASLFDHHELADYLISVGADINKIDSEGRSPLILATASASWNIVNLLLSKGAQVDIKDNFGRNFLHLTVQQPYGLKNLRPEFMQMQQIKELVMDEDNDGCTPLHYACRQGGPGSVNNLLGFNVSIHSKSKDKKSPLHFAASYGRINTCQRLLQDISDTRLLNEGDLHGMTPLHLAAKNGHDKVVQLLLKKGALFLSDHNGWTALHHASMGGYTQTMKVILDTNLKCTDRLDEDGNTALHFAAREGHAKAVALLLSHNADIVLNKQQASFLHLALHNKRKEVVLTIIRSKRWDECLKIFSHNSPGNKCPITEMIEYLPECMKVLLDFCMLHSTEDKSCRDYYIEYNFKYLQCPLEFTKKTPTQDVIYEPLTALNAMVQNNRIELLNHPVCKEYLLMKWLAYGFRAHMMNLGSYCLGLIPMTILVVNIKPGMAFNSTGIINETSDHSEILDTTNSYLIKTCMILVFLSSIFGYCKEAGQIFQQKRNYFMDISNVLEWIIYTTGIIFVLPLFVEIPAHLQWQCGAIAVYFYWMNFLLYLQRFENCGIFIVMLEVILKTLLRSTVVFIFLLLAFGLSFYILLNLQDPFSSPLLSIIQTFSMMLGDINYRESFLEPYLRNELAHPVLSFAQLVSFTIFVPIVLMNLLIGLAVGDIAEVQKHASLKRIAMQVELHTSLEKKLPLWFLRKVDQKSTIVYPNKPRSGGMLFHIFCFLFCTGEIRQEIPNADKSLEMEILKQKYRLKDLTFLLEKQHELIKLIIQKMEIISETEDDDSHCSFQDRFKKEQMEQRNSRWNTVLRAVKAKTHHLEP
method_notes: TRPA1 patch clamp (perforated patch, AITC-activated current)
Format: cell-based
conditions: Table 1; read-out: hTRPA1 Patch IC50
pIC50: −log10 of the molar value.

Exercise: Which pIC50 is reported for this molecule? CCOC(=O)C1=C(c2ccccc2)NC(=S)NC1c1ccccc1Cl (stereo not drawn)
Solution: ≥ 5.30

Exercise: Which pIC50 is reported for this molecule? COC(=O)C1=C(C)N(C)C(=O)NC1c1cc(O)ccc1Br (stereo not drawn)
Solution: ≥ 5.30

Exercise: Which pIC50 is reported for this molecule? COC(=O)C1=C(c2ccccc2)NC(=S)NC1c1ccc(OC)c(OC)c1 (stereo not drawn)
Solution: ≥ 5.00

Exercise: Which pIC50 is reported for this molecule? CCOC(=O)C1=C(c2ccccc2)NC(=S)NC1c1ccccc1Br (stereo not drawn)
Solution: ≥ 5.30

Exercise: Which pIC50 is reported for this molecule? CCOC(=O)C1=C(c2ccccc2)NC(=S)NC1c1ccc(OC(C)C)cc1 (stereo not drawn)
Solution: < 5.00

Exercise: Which pIC50 is reported for this molecule? CCOC(=O)C1=C(c2ccccc2)NC(=S)NC1c1cc(C)ccc1C (stereo not drawn)
Solution: < 5.00

Exercise: Which pIC50 is reported for this molecule? COC(=O)C1=C(C)N(C)C(=O)NC1c1cccc(Br)c1 (stereo not drawn)
Solution: < 5.00

Exercise: Which pIC50 is reported for this molecule? COC(=O)C1=C(C)NC(=S)NC1c1cccc(Cl)c1Cl (stereo not drawn)
Solution: ≥ 6.00

Exercise: Which pIC50 is reported for this molecule? COC(=O)C1=C(C)NC(=S)NC1c1ccccc1 (stereo not drawn)
Solution: < 5.00

====

For each of the molecules below, state its IC50.
study_system: hTRPA1 (Homo sapiens, UniProt O75762, K186N)
Construct: expressed in transfected cells; host or cells: HEK293/TREx (Invitrogen), induced with tetracycline
method_notes: High throughput Ca2+ fluorescence (Fluo4) assay, AITC stimulation
Type: cell-based
conditions: Table 2; read-out: hTRPA1 Fluor IC50

Exercise: Which IC50 is reported for this molecule? CC1CCCC(NC(=O)Cn2cnc3c2c(=O)n(C)c(=O)n3C)C1C (stereo not shown)
Solution: > 10 µM

Exercise: Which IC50 is reported for this molecule? CC(C(=O)Nc1ccc(Cl)cc1)n1cnc2c1c(=O)n(C)c(=O)n2C (stereo not shown)
Solution: ≤ 5 µM

Exercise: Which IC50 is reported for this molecule? Cn1c(=O)c2c(ncn2CC(=O)NC(c2ccc(F)cc2)c2cccs2)n(C)c1=O (stereo not shown)
Solution: > 10 µM

Exercise: Which IC50 is reported for this molecule? "CSc1ccccc1NC(=O)CN(C)C(=O)Cn1cnc2c1c(=O)n(C)c(=O)n2C"
Solution: > 10 µM

====

study_system: hTRPA1 (Homo sapiens, UniProt O75762, K186N)
Construct: expressed in transfected cells; host or cells: HEK293/TREx (Invitrogen), induced with tetracycline
method_notes: High throughput Ca2+ fluorescence (Fluo4) assay, AITC stimulation
Format: cell-based
conditions: Table 2; read-out: hTRPA1 Fluor IC50
assay_readout: IC50

Exercise: Which IC50 is reported for this molecule? CC(NC(=O)Cn1cnc2c1c(=O)n(C)c(=O)n2C)c1ccc2c(c1)OCCO2 (centres unmarked) [Compound 310]
Solution: > 10 µM

Exercise: Which IC50 is reported for this molecule? Cn1c(=O)c2c(ncn2CC(=O)Nc2ccc([N+](=O)[O-])cc2)n(C)c1=O [Compound 210]
Solution: ≥ 20 µM

Exercise: Which IC50 is reported for this molecule? COC(=O)c1ccccc1NC(=O)Cn1cnc2c1c(=O)n(C)c(=O)n2C [Compound 365]
Solution: > 10 µM

Exercise: Which IC50 is reported for this molecule? CC(C(=O)Nc1ccc2c(c1)OCO2)n1cnc2c1c(=O)n(C)c(=O)n2C (centres unmarked) [Compound 331]
Solution: > 10 µM

Exercise: Which IC50 is reported for this molecule? CCc1cccc(CC)c1NC(=O)Cn1cnc2c1c(=O)n(C)c(=O)n2C [Compound 383]
Solution: > 10 µM

====

study_system: hTRPA1 (Homo sapiens, UniProt O75762, K186N)
Construct: expressed in transfected cells; host or cells: HEK293/TREx (Invitrogen), induced with tetracycline
method_notes: High throughput Ca2+ fluorescence (Fluo4) assay, AITC stimulation
Type: cell-based
conditions: Table 1; read-out: hTRPA1 Fluo4 IC50
pIC50: −log10 of the molar value.
For each of the compounds below, state its pIC50.

Exercise: Which pIC50 is reported for this compound? CCOC(=O)C1=C(C)NC(=S)NC1c1ccc(O)cc1 (stereo not shown)
Solution: < 5.00

Exercise: Which pIC50 is reported for this compound? CCC(C)OC(=O)C1=C(C)NC(=O)NC1c1ccccc1Cl (stereo not shown)
Solution: < 5.00

Exercise: Which pIC50 is reported for this compound? CCN(CC)C(=O)C1=C(C)NC(=S)NC1c1ccc(Br)cc1 (stereo not shown)
Solution: < 5.00

Exercise: Which pIC50 is reported for this compound? COC(=O)C1=C(C)N(C)C(=S)NC1c1cccc(OC)c1 (stereo not shown)
Solution: ≤ 4.70

====

study_system: hTRPA1 (Homo sapiens, UniProt O75762, K186N)
Construct: expressed in transfected cells; host or cells: HEK293/TREx (Invitrogen), induced with tetracycline
method_notes: High throughput Ca2+ fluorescence (Fluo4) assay, AITC stimulation
Assay type: cell-based
conditions: Table 1; read-out: hTRPA1 Fluo4 IC50
pIC50: −log10 of the molar value.
For each of the compounds below, state its pIC50.

Exercise: Which pIC50 is reported for this compound? CCCC1=C(C(=O)OCC)C(c2ccc(Cl)cc2Cl)NC(=O)N1 (stereo not drawn)
Solution: < 5.00

Exercise: Which pIC50 is reported for this compound? COC(=O)C1=C(C)N(C)C(=S)NC1c1ccccc1OC (stereo not drawn)
Solution: < 5.00

Exercise: Which pIC50 is reported for this compound? CC1=C(C(=O)OC(C)C)C(c2cccc(Br)c2)NC(=O)N1 (stereo not drawn)
Solution: < 5.00
